Test: Liver microsome stability, human
Type: in vitro ADME
Conditions: human liver microsomes, pH 7.4, Table 5, read-out: HLM Clint
property.label: microsomal CLint at 2 h, 1 µM (µL/min/mg)
Write the answer as a number in µL/min/mg, unit excluded.

COc1cccc(-n2nnc(C(=O)Nc3ccc4c(c3)B(O)OC4)c2C)n1 :: 23

Next compound, please.
// query May I ask what microsomal CLint at 2 h, 1 µM has been recorded for O=C(Nc1ccc2c(c1)B(O)OC2)c1nnc(-c2ccccn2)o1 ?
// result 19

---

Test: MRC5 cytotoxicity assay
Format: cell-based
Conditions: human, MRC5SV2 cells (human embryonic lung fibroblasts); Table 4; geometric mean of at least two independent tests
property.label: CC50 at 72 h (µM)
The answer is to be given in µM; state only the numeric part.

Cc1cccc(-n2ncc(C(=O)Nc3ccc4c(c3)B(O)OC4)c2C)n1 [Compound 18] :: 41
O=C(Nc1ccc2c(c1)B(O)OC2)c1cn(C2CCC2)nc1C(F)(F)F [Compound 9] :: 26
O=C(Nc1ccc2c(c1)B(O)OC2)c1cc(-c2ccccn2)n[nH]1 [Compound 19] :: 4
Cn1nc(C(=O)Nc2ccc3c(c2)B(O)OC3)cc1-c1ccccn1 [Compound 21] :: 54

Below: the item to evaluate.
// query Given COc1ccccc1-n1cc(C(=O)Nc2ccc3c(c2)B(O)OC3)c(C)n1 [Compound 14] , state its recorded CC50 at 72 h.
// result 15.7
